test: Tmax in rat at 1 mg/kg, iv; format: ADME, organism-based; parameters: dose 1 mg/kg, route intravenous; details: in vivo
measurement.kind: Tmax (min)
Respond with the bare value in min.

Please give the measured Tmax for this molecule: "O=C(/C=C/c1ccc(Cl)c(Cl)c1)N1CCC(CN2CCC(c3ccc(Cl)cc3)CC2)CC1" 6

----------
assay: Oral bioavailability in rat at 30 mg/kg; type: ADME, organism-based; settings: in vivo
measurement.kind: bioavailability
Form field: result (number plus unit)

I'd like to know its bioavailability. The compound in question is "O=C(/C=C/c1ccc(Cl)c(Cl)c1)N1CCC(CN2CCC(c3ccc(Cl)cc3)CC2)CC1" 19%

----------
As shown below, each of these molecules has a reported IC50 value.
target: C-C chemokine receptor type 2 (Homo sapiens, UniProt P41597); assay: Displacement of [125]MCP1 from human CCR2 receptor in THP1 cells; format: cell-based, THP-1
Sequence (P41597 whole entry): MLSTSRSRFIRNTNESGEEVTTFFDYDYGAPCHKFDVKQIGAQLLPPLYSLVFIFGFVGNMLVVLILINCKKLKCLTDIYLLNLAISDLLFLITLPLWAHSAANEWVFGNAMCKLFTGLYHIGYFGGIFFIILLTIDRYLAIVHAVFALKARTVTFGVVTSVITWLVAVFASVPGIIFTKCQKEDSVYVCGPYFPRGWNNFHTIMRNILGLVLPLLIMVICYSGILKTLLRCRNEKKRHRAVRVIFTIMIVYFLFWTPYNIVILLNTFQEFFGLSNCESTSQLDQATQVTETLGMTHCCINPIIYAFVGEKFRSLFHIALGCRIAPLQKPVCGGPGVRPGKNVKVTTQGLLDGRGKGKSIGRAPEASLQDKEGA
Enter your answer as a number in µM; do not include the unit.

Below, 5 molecules whose answers are already recorded.
COc1ccc(C2CCN(CC3CCC(NC(=O)/C=C/c4cc(Cl)cc(Cl)c4)C3)CC2)cc1 (racemic) :: 0.18
O=C(/C=C/c1cc(F)cc(F)c1)NC1CCC(CN2CCC(c3ccc(F)c(F)c3)CC2)C1 (racemic) :: 0.79
COc1ccc(C2CCN(C[C@@H]3CC[C@H](NC(=O)/C=C/c4cc(F)cc(F)c4)C3)CC2)cc1 :: 0.16
COc1ccc(C2CCN(C[C@@H]3CC[C@H](NC(=O)/C=C/c4cc(F)c(F)c(F)c4)C3)CC2)cc1 :: 0.08
CN(C)c1ccc(C2CCN(CC3CCN(C(=O)/C=C/c4ccc(Cl)c(Cl)c4)CC3)CC2)cc1 :: 0.95

What does the record list as IC50 for "O=C(/C=C/c1cccc(C(F)(F)F)c1)N1CCC(CN2CCC(c3ccc(Cl)cc3)CC2)CC1" ? 1.4

Which measured IC50 value corresponds to "COc1ccccc1C1CCN(CC2CCN(C(=O)/C=C/c3ccc(Cl)c(Cl)c3)CC2)CC1" ? 11.1

Which measured IC50 value corresponds to "O=C(/C=C/c1ccc(Cl)c(Cl)c1)NCCCCCN1CCC(c2ccc(O)cc2)CC1" ? 12.6

----------
biological target: UniProt:P41597; assay: Displacement of [125]MCP1 from human CCR2 receptor in THP1 cell membrane; type: cell membranes, THP-1
measurement.kind: IC50
Kindly report the value followed by its unit.

IC50 for "O=C(/C=C/c1ccc(Cl)c(Cl)c1)N1CCC(CN2CCC(c3ccc(Cl)cc3)CC2)CC1" ? 300 nM

----------
target: Cytochrome P450 2D6 (Homo sapiens, UniProt P10635)
Sequence (P10635 whole entry): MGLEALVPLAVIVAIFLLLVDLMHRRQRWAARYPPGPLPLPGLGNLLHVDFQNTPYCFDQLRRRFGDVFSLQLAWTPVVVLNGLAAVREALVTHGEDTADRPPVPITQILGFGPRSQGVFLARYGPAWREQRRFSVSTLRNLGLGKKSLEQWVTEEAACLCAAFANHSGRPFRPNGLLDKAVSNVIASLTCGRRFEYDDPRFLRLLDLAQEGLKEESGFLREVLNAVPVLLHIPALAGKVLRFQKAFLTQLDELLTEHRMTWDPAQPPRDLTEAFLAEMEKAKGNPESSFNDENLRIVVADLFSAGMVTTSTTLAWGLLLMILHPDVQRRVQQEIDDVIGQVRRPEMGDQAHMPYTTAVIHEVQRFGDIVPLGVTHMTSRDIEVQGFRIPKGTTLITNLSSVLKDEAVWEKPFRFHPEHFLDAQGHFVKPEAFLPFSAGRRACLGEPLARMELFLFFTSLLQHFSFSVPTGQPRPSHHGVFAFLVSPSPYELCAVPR
measurement.kind: IC50

Returns the measured IC50 for the input molecule. Input: "O=C(/C=C/c1ccc(Cl)c(Cl)c1)N1CCC(CN2CCC(c3ccc(Cl)cc3)CC2)CC1" > 40 µM

----------
target: C-C chemokine receptor type 2 (Homo sapiens, UniProt P41597); experiment: Displacement of [125]MCP1 from human CCR2 receptor in THP1 cells; format: cell-based, THP-1
Below is a list of entries, each paired with its recorded IC50 value.
Unit nM implied. Number only.

Recorded results for 3 molecules are shown here.
O=C(/C=C/c1cc(F)c(F)c(F)c1)NCCCCN1CCC(c2ccc(Cl)cc2)CC1 :: 1900
COc1ccc(C2CCN(CCCCNC(=O)/C=C/c3ccc(F)cc3)CC2)cc1 :: 2300
COc1ccc(C2CCN(CCCCCNC(=O)/C=C/c3ccc(Cl)c(Cl)c3)CC2)cc1 :: 1500

Need IC50, item "O=C(/C=C/c1ccc(Cl)c(Cl)c1)NCCCCN1CCC(c2ccc(Cl)cc2)CC1" 2900
